# target-or-test-system: Vascular endothelial growth factor receptor 1 (Homo sapiens)
# Sequence (P17948 whole entry, the tested form may be a part): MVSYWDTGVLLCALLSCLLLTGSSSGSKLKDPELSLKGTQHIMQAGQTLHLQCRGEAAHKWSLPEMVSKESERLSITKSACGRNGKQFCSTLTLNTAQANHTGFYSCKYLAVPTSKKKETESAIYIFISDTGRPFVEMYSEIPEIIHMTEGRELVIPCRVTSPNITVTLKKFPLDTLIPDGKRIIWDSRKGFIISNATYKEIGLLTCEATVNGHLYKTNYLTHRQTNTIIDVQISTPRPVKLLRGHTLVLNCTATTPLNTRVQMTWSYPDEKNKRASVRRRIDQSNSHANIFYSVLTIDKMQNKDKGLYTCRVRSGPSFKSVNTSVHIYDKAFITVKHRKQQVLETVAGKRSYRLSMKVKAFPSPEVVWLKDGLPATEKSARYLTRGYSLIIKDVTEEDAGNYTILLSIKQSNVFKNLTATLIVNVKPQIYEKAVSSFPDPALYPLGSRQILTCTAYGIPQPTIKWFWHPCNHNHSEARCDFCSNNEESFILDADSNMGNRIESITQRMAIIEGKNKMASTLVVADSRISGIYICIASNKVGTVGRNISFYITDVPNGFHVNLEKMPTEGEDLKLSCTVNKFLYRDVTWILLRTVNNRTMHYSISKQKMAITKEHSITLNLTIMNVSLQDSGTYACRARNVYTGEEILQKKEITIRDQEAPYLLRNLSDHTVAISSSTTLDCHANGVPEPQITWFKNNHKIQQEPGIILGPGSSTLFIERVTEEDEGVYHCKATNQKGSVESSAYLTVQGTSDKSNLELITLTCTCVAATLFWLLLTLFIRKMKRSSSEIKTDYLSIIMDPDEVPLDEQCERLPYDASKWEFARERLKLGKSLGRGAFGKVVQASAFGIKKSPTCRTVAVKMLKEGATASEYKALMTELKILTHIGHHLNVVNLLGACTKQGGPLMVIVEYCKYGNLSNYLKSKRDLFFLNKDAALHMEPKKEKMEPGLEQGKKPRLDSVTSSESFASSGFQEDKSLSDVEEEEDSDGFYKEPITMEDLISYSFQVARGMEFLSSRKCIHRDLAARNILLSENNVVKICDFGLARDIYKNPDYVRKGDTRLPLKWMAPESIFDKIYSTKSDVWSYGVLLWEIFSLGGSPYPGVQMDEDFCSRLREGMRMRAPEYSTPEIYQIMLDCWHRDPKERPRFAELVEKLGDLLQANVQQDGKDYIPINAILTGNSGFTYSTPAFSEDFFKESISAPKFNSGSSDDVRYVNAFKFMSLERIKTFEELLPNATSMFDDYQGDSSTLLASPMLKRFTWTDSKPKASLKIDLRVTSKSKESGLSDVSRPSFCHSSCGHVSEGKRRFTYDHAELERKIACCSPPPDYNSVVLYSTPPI
# test-details: Inhibition of recombinant human N-terminal GST-tagged factor 10a cleavage site-fused Flt1 (K784 to I1338 residues) expressed in baculovirus infected insect Sf9 cells using poly-EY as substrate after 120 mins in presence of gamma33P-ATP by liquid scintillation spectrometry
# IC50 annotations
property-label: IC50

                            compound_smiles  property_label            result
0  COc1cc2c(Nc3cc(Cl)c(Br)cc3F)ncnc2cc1OC[C@@H]1CN2CCOC[C@H]2CO1            IC50     50 to 1000 nM
1  COc1cc2c(Nc3ccc(Cl)c(Cl)c3F)ncnc2cc1OC[C@H]1CN2CCOC[C@H]2CO1            IC50     50 to 1000 nM
2  COc1cc2c(Nc3ccc(Br)c(Cl)c3Cl)ncnc2cc1OC[C@@H]1CO[C@H]2[C@@H]1OC[C@@H]2OC            IC50  1000 to 20000 nM
